Where do the numbers come from? From the supplement of paper PMC10065799.

Tested on: c-Abl (mouse);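 further: frequency after pTyr selection over input frequency; kinase dosed for 20-30% of maximal phosphorylation in three min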
protocol text: phosphorylation enrichment, bacterial display (enrichment ratio); higher = better substrate or ligand; peptides without Tyr show the background
Could you label it Yes if measured phosphorylation enrichment is 0.7 or higher, and No otherwise?

// query In plain terms: is recorded phosphorylation enrichment at least 0.7 for RGRSTYYWPSP [GAGE12J_Y9_R13S] ?
// result No

// query Then this sequence: SSQILYKLEQS [THADA_Y701_V699I]
// result No

// query Then this sequence: FGGLRCGFGVL [KRTAP20-2_Y13_Y13C_YF]
// result No

// query Then this sequence: DHPSEYAARQL [ANXA13_Y90_R86H]
// result No

// query Then this sequence: HSLLQYGGSAN [ANK1_Y624_R619H]
// result No

// query Then this sequence: TLQNMYGCDVG [HLA-B_Y123_S121N]
// result Yes

// query Then this sequence: NHQYDYTFDWT [CSNK1A1_Y294]
// result No

// query Then this sequence: SMGHRYIEVFK [HNRNPF_Y82]
// result Yes

// query Then this sequence: AEEEIYGEFEA [Src_opt_1995]
// result Yes

// query Then this sequence: CDYKKYGKGLR [ZNF445_Y433_Y428C]
// result No

// query Then this sequence: GGQVFYNSEFG [FLT4_Y1333_YF]
// result Yes

// query Then this sequence: DRLASYLDKMR [KRT17_Y98_V102M]
// result No

// query Then this sequence: SLDHPYEKPRK [INAVA_Y333]
// result No

// query Then this sequence: GEVLVYVEDPA [FLNA_Y319]
// result Yes

// query Then this sequence: DGTVHYVDEKG [IFT140_Y216]
// result No

// query Then this sequence: KNNSIYVVANI [VNN1_Y134]
// result Yes

// query Then this sequence: REQREYLEQLN [CCDC88B_Y1277_D1279E]
// result Yes

// query Then this sequence: KVKVEYDMTVP [AHNAK_Y964_G962V]
// result Yes

// query Then this sequence: AKVKPYINGTS [IBTK_Y1064_V1065I]
// result No

// query Then this sequence: AARVSYWLASG [DCHS1_Y1582_R1583W]
// result No

// query Then this sequence: RMSSSYPTGLA [ADM_Y52]
// result No

// query Then this sequence: YTHSDYQYGQR [PKP2_Y166_S169G]
// result No

// query Then this sequence: EILLSYLRTGY [TGM1_Y365]
// result Yes

// query Then this sequence: CVRTIYTIDGS [DCLK2_Y124_G119C]
// result Yes

// query Then this sequence: EVRTQYEEIAQ [KRT76_Y361_A359T]
// result Yes

// query Then this sequence: RKRQFYLYKGK [RSPO4_Y112_C107R]
// result No

// query Then this sequence: RSHLSYDVTPE [IQGAP3_Y1098_P1097S]
// result Yes

// query Then this sequence: VSFDEYRFRSF [CFTR_Y515_V520F_YF]
// result Yes

// query Then this sequence: LLNPRYNLPLD [TOM1L1_Y109]
// result Yes

// query Then this sequence: ARTNEYKIIRS [INA_Y87_T92S]
// result No

// query Then this sequence: DRLASYLDKAR [KRT14_Y129_V133A]
// result Yes

// query Then this sequence: EVDETYVPKEF [ALB_Y521]
// result Yes

// query Then this sequence: KRNSLYSFSDH [CCDC82_Y331_Q327R]
// result No

// query Then this sequence: DHAGEYGAEAL [HBA1_Y25_A20D]
// result No

// query Then this sequence: QNTGDYFDLFG [PTPN11_Y62_YF]
// result Yes

// query Then this sequence: EILLSYPRTGF [TGM1_Y365_L366P_YF]
// result No

// query Then this sequence: GQLIFYAPPEW [CNTN6_Y315]
// result Yes

// query Then this sequence: TFEFRYLEDRD [CNOT3_Y746_YF]
// result Yes

// query Then this sequence: CKLCQYYLDHL [ATRX_Y1849_Y1847C]
// result No

// query Then this sequence: NAMRRHIEEFQ [MNS1_Y244_Y244H]
// result No

// query Then this sequence: QAIDEYEKWLE [MAP9_Y603_N601D]
// result Yes

// query Then this sequence: HLELNYKEDEY [MME_Y502_Y497H]
// result No

// query Then this sequence: RLNAIYQNNLT [GSR_Y158]
// result No

// query Then this sequence: MSRNLYSGDCY [DDR2_Y736_Y740C]
// result No

// query Then this sequence: RRGTGYTLSLP [MAGEC3_Y152]
// result Yes

// query Then this sequence: SGFESYGSSSS [RPA2_Y9_Y14S]
// result No

// query Then this sequence: EPSVDYCVVKI [CAD_Y735]
// result Yes

// query Then this sequence: HHTDECEFDEL [TGM1_Y134_Y134C_YF]
// result Yes

// query Then this sequence: AGIENYTSRFG [NKD2_Y256]
// result No

// query Then this sequence: NVADHYGVFKP [ATP6V0D2_Y271_YF]
// result No

// query Then this sequence: DPLLTYLFPPK [LMNA_Y481_R482L]
// result Yes

// query Then this sequence: `TDGIAYEFRVI`
// result Yes

// query Then this sequence: EEQFFYEKAIL [BCCIP_Y257_E254Q]
// result Yes

// query Then this sequence: RGNMYYENSYA [EGFR_Y113]
// result Yes

###

Tested on: c-Abl (mouse);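 further: 11-residue human phosphosite peptides and single-mutation variants displayed on the E. coli surface, counted by deep sequencing, each peptide's frequency after selection divided by its frequency in the unselected input library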;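 further: frequency after pTyr selection over input frequency; kinase dosed for 20-30% of maximal phosphorylation in three min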
protocol text: phosphorylation enrichment, bacterial display (enrichment ratio); higher = better substrate or ligand; peptides without Tyr show the background
reported endpoint: phosphorylation enrichment
// keep it numeric: no unit symbol after the value

// query Any idea what its phosphorylation enrichment is? The sequence is PFTRNYYVWAV [CYBA_Y87_R90W]
// result 4.71

// query Then this sequence: RIFDFYSARKA [STOX1_Y858_YF]
// result 1.04

// query Then this sequence: TESALYGCTVL [KIAA1804_Y724]
// result 1.04

// query Then this sequence: IVFVICDEVVK [SLC25A1_Y297_Y297C]
// result 0.55

// query Then this sequence: NYYDLYGGEKF [PTPN11_Y66_D61N]
// result 0.725

// query Then this sequence: LQEQNYLAVDS [FAM114A1_Y115]
// result 0.817

// query Then this sequence: PFFTSYPPSPD [GDAP2_Y491_YF]
// result 0.901

// query Then this sequence: MPLTEYLKRIK [CNGB3_Y200]
// result 0.525

// query Then this sequence: RGNKEYKEEKR [LENG1_Y96_E97K]
// result 0.688

// query Then this sequence: MSSLFYANTLF [HOXB7_Y6_YF]
// result 0.693

// query Then this sequence: VSLLPYFPAIM [IPO4_Y518_A513V]
// result 0.754

// query Then this sequence: FKGIVYSVSSD [DCX_Y70_A71S]
// result 0.887

// query Then this sequence: GAVGNYSGGLA [MGMT_Y158]
// result 0.43

// query Then this sequence: LVIIKYLPEWT [PSEN1_Y240_F237I]
// result 1.5

###

assayed system: c-Src SH2;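 further: peptide library displayed on the E. coli surface as eCPX fusions, selected cells deep-sequenced, score is each peptide's frequency after selection divided by its frequency in the input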
protocol text: SH2 binding enrichment of the phosphorylated peptide, bacterial display (enrichment ratio); higher = better substrate or ligand; peptides without Tyr show the background
reported endpoint: SH2 binding enrichment
// keep it numeric: no unit symbol after the value

// query Any idea what its SH2 binding enrichment is? The sequence is CTTIHFNYMCN [TP53_Y234_Y234F]
// result 1.72

// query Then this sequence: ERSMSYCDESR [SMG1_Y143_S144C]
// result 0.644

// query Then this sequence: LFCLHYFHRTF [SRD5A2_Y91_V89L]
// result 1.33

// query Then this sequence: SAQHHYESLQT [BIN1_Y157_R154Q]
// result 36.4

// query Then this sequence: ARLEFCENEKK [IRS1_Y47_Y47C_YF]
// result 0.626

// query Then this sequence: DKATEYIQFMR [MAX_Y70_YF]
// result 0.565

// query Then this sequence: EFFDGYWGFSV [ITGA2B_Y265_YF]
// result 0.657

// query Then this sequence: HPWPQYTTRAP [FNDC1_Y1281]
// result 0.594

// query Then this sequence: MGRVNYGAYIN [GLB1_Y485]
// result 1.22

// query Then this sequence: RLAKRYLIWEC [SCN5A_Y694_Q692K]
// result 0.704

// query Then this sequence: HKLSYCEYDFE [BTK_Y40_Y40C]
// result 0.914

// query Then this sequence: PFSNPYENSLI [EPOR_Y489_YF]
// result 4.88

// query Then this sequence: CTNPQYLAAGS [RABL3_Y185_R184Q]
// result 0.589

// query Then this sequence: RQGQAYRGQRV [TSHR_Y706_A703G]
// result 0.489
